System: PBMCs
Assay: LPS-induced IL-8 release in PBMC cells (assay b)
Type: cell-based, human
Details: Homo sapiens, PBMC; LPS-stimulated PBMCs; read-out: IC50 Values for Inhibition of Cytokine Release, PBMCs IL-8
IC50 vs 4 nM: less than gives met; not less than gives not met.

A selection of reference data follows.
>  <compound>
COc1c(NC(=O)Nc2ccc(Oc3ccnc(Nc4ccccc4)c3)c3ccccc23)cc(C(C)(C)C)cc1[S+](C)[O-] (stereo not shown) [38(b1)]

>  <class-label>
not met

$$$$
>  <compound>
COc1c(NC(=O)Nc2ccc(Oc3ccnc(Nc4ccccn4)n3)c3ccccc23)cc(C(C)(C)C)cc1P(C)(C)=O [15(o)]

>  <class-label>
not met

$$$$
>  <compound>
COc1c(NC(=O)Nc2ccc(Oc3ccnc(Nc4cc(C)cc(C)c4)c3)c3ccccc23)cc(C(C)(C)C)cc1P(C)(C)=O [Example 28]

>  <class-label>
met

$$$$
>  <compound>
COc1cc(Nc2cc(Oc3ccc(NC(=O)Nc4cc(C(C)(C)C)cc(CC(N)=O)c4OC)c4ccccc34)ccn2)cc(C(=O)NCCN2CC[S+]([O-])CC2)c1 [Example 65]

>  <class-label>
not met

$$$$

Would you kindly verify if IC50 of COc1cc(CO)cc(Nc2cc(Oc3ccc(NC(=O)Nc4cc(C(C)(C)C)cc(CC(N)=O)c4OC)c4ccccc34)ccn2)c1 [38(m)] is strictly less than 4 nM?
met

Would you kindly verify if IC50 of COc1cccc(Nc2cc(Oc3ccc(NC(=O)Nc4cc(C(C)(C)C)cc([S+](C)[O-])c4OC)c4ccccc34)ccn2)c1 (stereo not shown) [Example 41] is strictly less than 4 nM?
met

----------
Target: p38 MAPKα isoform (MAPK14) (Homo sapiens (Human), UniProt Q16539)
Sequence (Q16539 whole entry, canonical isoform): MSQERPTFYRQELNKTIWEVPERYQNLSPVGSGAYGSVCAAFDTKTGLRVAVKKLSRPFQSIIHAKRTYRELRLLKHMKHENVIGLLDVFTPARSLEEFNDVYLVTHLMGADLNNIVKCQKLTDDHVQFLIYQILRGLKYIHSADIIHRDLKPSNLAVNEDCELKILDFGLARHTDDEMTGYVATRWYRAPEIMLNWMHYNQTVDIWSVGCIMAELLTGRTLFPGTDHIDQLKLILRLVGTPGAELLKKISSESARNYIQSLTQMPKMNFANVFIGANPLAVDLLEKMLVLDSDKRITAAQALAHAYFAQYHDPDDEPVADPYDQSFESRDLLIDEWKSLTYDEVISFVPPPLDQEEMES
Assay: p38 MAPKα enzyme inhibition (FRET, Z-LYTE, Method 2)
endpoint-name: pIC50
One number for each entry, as −log10 of the molar value.

>  <compound>
COc1c(CNC(C)=O)cc(C(C)(C)C)cc1NC(=O)Nc1ccc(Oc2ccnc(NCc3ccccn3)c2)c2ccccc12

>  <pIC50>
8.22

$$$$
>  <compound>
COc1c(C[S+](C)[O-])cc(C(C)(C)C)cc1NC(=O)Nc1ccc(Oc2ccnc(Nc3ccccc3)c2)c2ccccc12 (stereo not shown)

>  <pIC50>
6.49

$$$$
>  <compound>
CNC(=O)Cc1cc(C(C)(C)C)cc(NC(=O)Nc2ccc(Oc3ccnc(Nc4cccc(OC)c4)c3)c3ccccc23)c1OC

>  <pIC50>
6.91

$$$$
>  <compound>
C#Cc1cc(Nc2cc(Oc3ccc(NC(=O)Nc4cc(C(C)(C)C)cc(P(C)(C)=O)c4OC)c4ccccc34)ccn2)cc(C(=O)NCCOCCOCCOC)c1

>  <pIC50>
7.04

$$$$

Dear colleague, could you please provide pIC50 for the compounds listed below?
1. COc1c(CC(N)=O)cc(C(C)(C)C)cc1NC(=O)Nc1ccc(Oc2ccnc(Nc3ccccc3)c2)c2ccccc12
2. COc1cc(F)cc(Nc2cc(Oc3ccc(NC(=O)Nc4cc(C(C)(C)C)cc(P(C)(C)=O)c4OC)c4ccccc34)ccn2)c1
3. COc1c(NC(=O)Nc2ccc(Oc3ccnc(Nc4cc(C)c5[nH]ncc5c4)n3)c3ccccc23)cc(C(C)(C)C)cc1P(C)(C)=O

1: 6.97; 2: 6.46; 3: 6.76
